# Tested on: crabgrass, large (large crabgrass, Digitaria sanguinalis)
# test-method-notes: Test A pre-/postemergence: crabgrass, large
# Type: in vivo
# condition-notes: Postemergence, 500 g ai/ha; visual rating on 0 to 100 scale (0 no effect, 100 complete control), approximately ten days
Note to self: values exactly at 80 are T. So Crabgrass, Large plant response rating at or above 80 is T, below is F.

{"columns": ["compound-smiles", "cat"],
 "data": [
  ["Cc1nn(-c2ccc(Cl)cc2)nc1Oc1ccnc(C(F)(F)F)c1", "T"]
]}

Could you please find out whether O=C(c1ccnc(C(F)(F)F)c1)c1nn(-c2ccc(F)cc2)nc1F has Crabgrass, Large plant response rating that meets 80 or exceeds it?
F

hey, is Crabgrass, Large plant response rating for this one >= 80? Cc1nn(-c2ccc([N+](=O)[O-])cc2)nc1C(=O)c1cccc(C(F)(F)F)c1
F

Does the reported Crabgrass, Large plant response rating for Cc1nn(-c2ccc(C(F)(F)F)cc2)nc1Cn1ccc(C(F)(F)C(F)(F)F)n1 fall at or above the 80 mark?
T

Confirm if Crabgrass, Large plant response rating reported for the molecule Cc1nn(-c2ccnc(C(F)(F)F)c2)nc1Cc1ccnc(C(F)(F)F)c1 is 80 or above.
T

Please indicate if the recorded Crabgrass, Large plant response rating for Cc1nn(-c2ccc(F)cc2)nc1Oc1ccnc(OCC(F)(F)F)c1 meets or exceeds 80.
F

Is the recorded value of Crabgrass, Large plant response rating equal to or greater than 80 for this molecule? Cc1nn(-c2ccc(C(F)(F)F)cc2)nc1C(=O)c1cccc(C(F)(F)F)c1
F
